- target_or_test_system: follicle-stimulating hormone (FSH) receptor (Rattus norvegicus)
- Construct: endogenous in cells; host or cells: primary rat granulosa cells
- Sequence (P20395 18-692): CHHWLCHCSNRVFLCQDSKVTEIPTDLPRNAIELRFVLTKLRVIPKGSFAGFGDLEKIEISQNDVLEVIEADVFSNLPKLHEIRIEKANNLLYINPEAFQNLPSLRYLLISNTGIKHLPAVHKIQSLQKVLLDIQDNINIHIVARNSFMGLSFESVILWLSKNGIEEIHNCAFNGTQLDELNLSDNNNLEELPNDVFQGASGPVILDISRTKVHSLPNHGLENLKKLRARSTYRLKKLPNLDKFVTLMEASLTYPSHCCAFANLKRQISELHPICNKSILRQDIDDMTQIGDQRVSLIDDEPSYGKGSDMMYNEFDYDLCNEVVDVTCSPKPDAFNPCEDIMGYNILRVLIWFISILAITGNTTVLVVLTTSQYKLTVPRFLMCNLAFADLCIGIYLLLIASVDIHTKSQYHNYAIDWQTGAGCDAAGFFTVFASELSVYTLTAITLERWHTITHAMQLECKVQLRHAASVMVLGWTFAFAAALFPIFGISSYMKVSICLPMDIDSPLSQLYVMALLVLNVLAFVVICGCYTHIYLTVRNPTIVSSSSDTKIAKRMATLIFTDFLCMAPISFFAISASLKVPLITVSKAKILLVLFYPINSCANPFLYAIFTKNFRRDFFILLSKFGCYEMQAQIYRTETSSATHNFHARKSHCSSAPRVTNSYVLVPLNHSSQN
- experiment: Rat granulosa EC50 FSH (Assay B)
- Format: cell-based
- settings: rat granulosa cells; read-out: Assay B: Rat granulosa EC50 FSH
measure: EC50

Lookup result for COC(=O)C1CCCN(C(=O)c2nn(-c3ccsc3)c3c2COc2cc(OC)c(C=C(C)C)cc2-3)CC1 (stereo not shown) ; measured EC50: > 5000 nM

Reported EC50 ( [2H]C([2H])([2H])OCC1(N(C(=O)c2nn(-c3ccsc3)c3c2COc2cc(OC)c(-c4ccn(C)n4)cc2-3)C([2H])([2H])[2H])COC1 ) = 1000 to 5000 nM

// field: EC50; key: CCn1cc(-c2cc3c(cc2OC)OCc2c(C(=O)N4CCOCC4(C)C)nn(-c4ccsc4)c2-3)cn1 ; value = > 5000 nM

# EC50 of COCCCn1cc(-c2cc3c(cc2OC)OCc2c(C(=O)N4CCOCC4(C)C)nn(-c4ccsc4)c2-3)cn1 = < 100 nM

Kindly note the recorded EC50 for COc1cc2c(cc1-c1cccnc1)-c1c(c(C(=O)N3CCCN(C(=O)C4CCC4)CC3)nn1-c1ccsc1)CO2 , which is 1000 to 5000 nM

// EC50 lookup, compound = COc1cc2c(cc1-c1ccn(C)c1)-c1c(c(C(=O)N3CCNCC3(C)C)nn1-c1ccsc1)CO2 , result: 1000 to 5000 nM

COc1cc2c(cc1C(N)=O)-c1c(c(C(=O)N(C)C(C)(C)C)nn1-c1ccsc1)CO2 has a reported EC50 of 100 to 1000 nM
